- tgt: NAD-dependent protein deacetylase sirtuin-2 (Homo sapiens) (UniProt Q8IXJ6)
- Sequence (whole entry): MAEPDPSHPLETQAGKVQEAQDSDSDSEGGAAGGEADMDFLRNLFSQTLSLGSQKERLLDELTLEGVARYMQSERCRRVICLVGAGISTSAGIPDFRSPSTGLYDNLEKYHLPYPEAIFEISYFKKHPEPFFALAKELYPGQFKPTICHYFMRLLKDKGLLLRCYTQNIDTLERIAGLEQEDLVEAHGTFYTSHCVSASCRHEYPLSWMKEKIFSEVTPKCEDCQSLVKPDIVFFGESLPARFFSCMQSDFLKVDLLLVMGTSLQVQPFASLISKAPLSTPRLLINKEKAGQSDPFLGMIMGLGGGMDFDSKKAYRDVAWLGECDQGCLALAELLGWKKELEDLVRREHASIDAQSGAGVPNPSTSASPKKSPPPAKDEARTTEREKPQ
- assayText: Inhibition of human N-terminal His6-SUMO-tagged SIRT2 (38 to 356 residues) expressed in Escherichia coli BL21 at 250 uM using H3K9AcWW as substrate preincubated for 15 mins followed by substrate addition measured after 1 hr by HPLC analysis relative to control
Residues, ends and D or L forms follow the SMILES beside them. *: point of attachment. X4 = O=C(O)CCNC(=O)CCC*; X12 = CCCCNC(=O)CCC*; X5 = NC(=O)CCC*
testReadout: inhibition

[
  {
    "molecule": "CCCCNC(=O)CCCSC[C@H](NC(=O)[C@H](CCCNC(=N)N)NC(=O)[C@H](C)NC(=O)[C@@H](NC(=O)[C@H](CCC(N)=O)NC(=O)[C@@H](N)CCCCN)[C@@H](C)O)C(=O)N[C@@H](CO)C(=O)N[C@H](C(=O)NCC(=O)NCC(=O)N[C@@H](CCCCN)C(=O)O)[C@@H](C)O (H-KQTARC(X12)STGGK-OH)",
    "obsValue": "12%"
  },
  {
    "molecule": "C[C@H](NC(=O)[C@@H](NC(=O)[C@H](CCC(N)=O)NC(=O)[C@@H](N)CCCCN)[C@@H](C)O)C(=O)N[C@@H](CCCNC(=N)N)C(=O)N[C@@H](CSCCCC(N)=O)C(=O)N[C@@H](CO)C(=O)N[C@H](C(=O)NCC(=O)NCC(=O)N[C@@H](CCCCN)C(=O)O)[C@@H](C)O (H-KQTARC(X5)STGGK-OH)",
    "obsValue": "27%"
  },
  {
    "molecule": "C[C@H](NC(=O)[C@@H](NC(=O)[C@H](CCC(N)=O)NC(=O)[C@@H](N)CCCCN)[C@@H](C)O)C(=O)N[C@@H](CCCNC(=N)N)C(=O)N[C@@H](CSCCCC(=O)NCCC(=O)O)C(=O)N[C@@H](CO)C(=O)N[C@H](C(=O)NCC(=O)NCC(=O)N[C@@H](CCCCN)C(=O)O)[C@@H](C)O (H-KQTARC(X4)STGGK-OH)",
    "obsValue": "45%"
  }
]

Shifting focus to the molecule that follows.
Problem: Quick check: inhibition of NC(=O)c1cccnc1 ?
Solution: 83%

----------
- tgt: NAD-dependent protein deacetylase sirtuin-1 (Homo sapiens) (UniProt Q96EB6)
- Sequence (Q96EB6 whole entry): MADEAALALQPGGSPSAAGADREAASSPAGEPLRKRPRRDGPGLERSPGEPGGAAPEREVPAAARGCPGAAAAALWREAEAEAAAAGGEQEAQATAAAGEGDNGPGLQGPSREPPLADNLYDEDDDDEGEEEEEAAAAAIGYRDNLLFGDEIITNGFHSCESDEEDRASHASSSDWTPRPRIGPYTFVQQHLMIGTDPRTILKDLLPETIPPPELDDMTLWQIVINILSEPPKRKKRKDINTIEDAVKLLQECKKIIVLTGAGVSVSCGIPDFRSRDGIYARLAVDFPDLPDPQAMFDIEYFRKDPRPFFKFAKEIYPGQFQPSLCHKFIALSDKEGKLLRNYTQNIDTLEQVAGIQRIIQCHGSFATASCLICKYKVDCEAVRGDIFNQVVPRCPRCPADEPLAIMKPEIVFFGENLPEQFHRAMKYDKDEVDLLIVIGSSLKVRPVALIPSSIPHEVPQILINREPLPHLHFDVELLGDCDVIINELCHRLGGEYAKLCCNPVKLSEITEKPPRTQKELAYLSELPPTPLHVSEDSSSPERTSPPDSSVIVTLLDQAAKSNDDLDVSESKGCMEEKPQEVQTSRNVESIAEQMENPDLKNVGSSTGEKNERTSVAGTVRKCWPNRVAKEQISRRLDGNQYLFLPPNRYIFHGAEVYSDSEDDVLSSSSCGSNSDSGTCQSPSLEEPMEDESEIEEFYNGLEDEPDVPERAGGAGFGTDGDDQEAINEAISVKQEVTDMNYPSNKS
- assayText: Inhibition of human SIRT1 expressed in Escherichia coli BL21 at 250 uM using H3K9AcWW as substrate preincubated for 15 mins followed by substrate addition measured after 1 hr by HPLC analysis relative to control
Residues, ends and D or L forms follow the SMILES beside them. *: point of attachment. X6 = O=C(CCC*)NCc1ccc([N+](=O)[O-])cc1; X2 = CCCCCCCCCCCCCNC(=O)CCC*; X7 = O=C(CCC*)NCc1ccccc1; X3 = CCCCCCCCNC(=O)CCC*; X11 = CNC(=O)CCC*
testReadout: inhibition (%)
Record the value in %, omitting the unit from your answer.

In the examples that follow, each entry is paired with its recorded inhibition.
[
  {
    "compound": "CCCCCCCCCCCCCNC(=O)CCCSC[C@H](NC(=O)[C@H](CCCNC(=N)N)NC(=O)[C@H](C)NC(=O)[C@@H](NC(=O)[C@H](CCC(N)=O)NC(=O)[C@@H](N)CCCCN)[C@@H](C)O)C(=O)N[C@@H](CO)C(=O)N[C@H](C(=O)NCC(=O)NCC(=O)N[C@@H](CCCCN)C(=O)O)[C@@H](C)O (H-KQTARC(X2)STGGK-OH)",
    "tgt": "NAD-dependent protein deacetylase sirtuin-1 (Homo sapiens) (UniProt Q96EB6)",
    "inhibition [%]": 67
  },
  {
    "compound": "CCCCCCCCNC(=O)CCCSC[C@H](NC(=O)[C@H](CCCNC(=N)N)NC(=O)[C@H](C)NC(=O)[C@@H](NC(=O)[C@H](CCC(N)=O)NC(=O)[C@@H](N)CCCCN)[C@@H](C)O)C(=O)N[C@@H](CO)C(=O)N[C@H](C(=O)NCC(=O)NCC(=O)N[C@@H](CCCCN)C(=O)O)[C@@H](C)O (H-KQTARC(X3)STGGK-OH)",
    "tgt": "NAD-dependent protein deacetylase sirtuin-1 (Homo sapiens) (UniProt Q96EB6)",
    "inhibition [%]": 23
  },
  {
    "compound": "C[C@H](NC(=O)[C@@H](NC(=O)[C@H](CCC(N)=O)NC(=O)[C@@H](N)CCCCN)[C@@H](C)O)C(=O)N[C@@H](CCCNC(=N)N)C(=O)N[C@@H](CSCCCC(=O)NCc1ccccc1)C(=O)N[C@@H](CO)C(=O)N[C@H](C(=O)NCC(=O)NCC(=O)N[C@@H](CCCCN)C(=O)O)[C@@H](C)O (H-KQTARC(X7)STGGK-OH)",
    "tgt": "NAD-dependent protein deacetylase sirtuin-1 (Homo sapiens) (UniProt Q96EB6)",
    "inhibition [%]": 30
  }
]

Problem: Quick check: inhibition of CNC(=O)CCCSC[C@H](NC(=O)[C@H](CCCNC(=N)N)NC(=O)[C@H](C)NC(=O)[C@@H](NC(=O)[C@H](CCC(N)=O)NC(=O)[C@@H](N)CCCCN)[C@@H](C)O)C(=O)N[C@@H](CO)C(=O)N[C@H](C(=O)NCC(=O)NCC(=O)N[C@@H](CCCCN)C(=O)O)[C@@H](C)O (H-KQTARC(X11)STGGK-OH) ?
Solution: 34

Problem: Quick check: inhibition of C[C@H](NC(=O)[C@@H](NC(=O)[C@H](CCC(N)=O)NC(=O)[C@@H](N)CCCCN)[C@@H](C)O)C(=O)N[C@@H](CCCNC(=N)N)C(=O)N[C@@H](CSCCCC(=O)NCc1ccc([N+](=O)[O-])cc1)C(=O)N[C@@H](CO)C(=O)N[C@H](C(=O)NCC(=O)NCC(=O)N[C@@H](CCCCN)C(=O)O)[C@@H](C)O (H-KQTARC(X6)STGGK-OH) ?
Solution: 38

Reference source for all entries: ChEMBL document CHEMBL4118276
